Just for reference, ChEMBL document CHEMBL4811223 is where these values come from.

For each of the compounds below, state its pIC50.
Test system: RT-112
experimentalDetails: Cytotoxicity against human RT-112 cells assessed as cell growth inhibition after 48 hrs by MTT assay
Assay type: functional, cell-based
details: RT-112, 48 h
pIC50: −log10 of the molar value.

Value of pIC50 reported for the compound CC(=O)OC[C@@]12[C@H](O)[C@H](O)[C@]3(C)C(=CC[C@@H]4[C@@]5(C)CC[C@H](O[C@@H]6OC[C@H](O[C@@H]7O[C@H](CO)[C@@H](O)[C@H](O)[C@H]7O[C@@H]7OC[C@@H](O)[C@H](O)[C@H]7O)[C@H](O)[C@H]6O[C@@H]6O[C@H](CO)[C@@H](O)[C@H](O)[C@H]6O)C(C)(C)[C@@H]5CC[C@]43C)[C@@H]1CC(C)(C)[C@@H](OC(C)=O)[C@@H]2O is < 5.00

Value of pIC50 reported for the compound CC1(C)C[C@H](O)[C@]2(CO)[C@H](O)[C@H](O)[C@]3(C)C(=CC[C@@H]4[C@@]5(C)CC[C@H](O[C@@H]6OC[C@H](O[C@@H]7O[C@H](CO)[C@@H](O)[C@H](O)[C@H]7O[C@@H]7OC[C@@H](O)[C@H](O)[C@H]7O)[C@H](O)[C@H]6O[C@@H]6O[C@H](CO)[C@@H](O)[C@H](O)[C@H]6O)C(C)(C)[C@@H]5CC[C@]43C)[C@@H]2C1 is < 5.00

Value of pIC50 reported for the compound CC(=O)O[C@H]1[C@H](OC(C)=O)[C@]2(CO)[C@H](O)[C@H](O)[C@]3(C)C(=CC[C@@H]4[C@@]5(C)CC[C@H](O[C@@H]6OC[C@H](O[C@@H]7O[C@H](CO)[C@@H](O)[C@H](O)[C@H]7O[C@@H]7OC[C@@H](O)[C@H](O)[C@H]7O)[C@H](O)[C@H]6O[C@@H]6O[C@H](CO)[C@@H](O)[C@H](O)[C@H]6O)C(C)(C)[C@@H]5CC[C@]43C)[C@@H]2CC1(C)C is 5.14

###

System: A549
experimentalDetails: Cytotoxicity against human A549 cells assessed as cell growth inhibition after 48 hrs by MTT assay
Format: functional, cell-based
details: A549, 48 h
valueType: pIC50
Quick note: pIC50 means taking -log10 of the concentration in moles per liter.

Value of pIC50 reported for the molecule CC(=O)OC[C@@]12[C@H](O)C[C@]3(C)C(=CC[C@@H]4[C@@]5(C)CC[C@H](O[C@@H]6OC[C@H](O[C@@H]7O[C@H](CO)[C@@H](O)[C@H](O)[C@H]7O[C@@H]7OC[C@@H](O)[C@H](O)[C@H]7O)[C@H](O)[C@H]6O[C@@H]6O[C@H](CO)[C@@H](O)[C@H](O)[C@H]6O)C(C)(C)[C@@H]5CC[C@]43C)[C@@H]1CC(C)(C)[C@@H](OC(C)=O)[C@@H]2O is 5.05

Value of pIC50 reported for the molecule CC(=O)O[C@H]1C(=O)[C@@]2(C)[C@H]([C@H](OC(=O)c3ccccc3)[C@]3(O)C[C@H](OC(=O)[C@H](O)[C@@H](NC(=O)c4ccccc4)c4ccccc4)C(C)=C1C3(C)C)[C@]1(OC(C)=O)CO[C@@H]1C[C@@H]2O is 6.15

Value of pIC50 reported for the molecule CC(=O)O[C@H]1[C@H](OC(C)=O)[C@]2(CO)[C@H](O)[C@H](O)[C@]3(C)C(=CC[C@@H]4[C@@]5(C)CC[C@H](O[C@@H]6OC[C@H](O[C@@H]7O[C@H](CO)[C@@H](O)[C@H](O)[C@H]7O[C@@H]7OC[C@@H](O)[C@H](O)[C@H]7O)[C@H](O)[C@H]6O[C@@H]6O[C@H](CO)[C@@H](O)[C@H](O)[C@H]6O)C(C)(C)[C@@H]5CC[C@]43C)[C@@H]2CC1(C)C is 5.06

###

Test system: HCT-116
experimentalDetails: Cytotoxicity against human HCT-116 cells assessed as cell growth inhibition after 48 hrs by MTT assay
Format: functional, cell-based
details: HCT-116, 48 h
valueType: IC50 (µM)
Give your result in µM as a bare value.

Value of IC50 reported for the compound CC(=O)OC[C@@]12[C@H](O)C[C@]3(C)C(=CC[C@@H]4[C@@]5(C)CC[C@H](O[C@@H]6OC[C@H](O[C@@H]7O[C@H](CO)[C@@H](O)[C@H](O)[C@H]7O[C@@H]7OC[C@@H](O)[C@H](O)[C@H]7O)[C@H](O)[C@H]6O[C@@H]6O[C@H](CO)[C@@H](O)[C@H](O)[C@H]6O)C(C)(C)[C@@H]5CC[C@]43C)[C@@H]1CC(C)(C)[C@@H](OC(C)=O)[C@@H]2O is 6.8

Value of IC50 reported for the compound CC(=O)O[C@H]1CC(C)(C)C[C@H]2C3=CC[C@@H]4[C@@]5(C)CC[C@H](O[C@@H]6OC[C@H](O[C@@H]7O[C@H](CO)[C@@H](O)[C@H](O)[C@H]7O[C@@H]7OC[C@@H](O)[C@H](O)[C@H]7O)[C@H](O)[C@H]6O[C@@H]6O[C@H](CO)[C@@H](O)[C@H](O)[C@H]6O)C(C)(C)[C@@H]5CC[C@@]4(C)[C@]3(C)[C@@H](O)[C@@H](O)[C@@]12CO is 7.7

###

For each of the compounds below, state its IC50.
System: A549
experimentalDetails: Cytotoxicity against human A549 cells assessed as cell growth inhibition after 48 hrs by MTT assay
Assay type: functional, cell-based
details: A549, 48 h

The recorded IC50 with A549 for CC(=O)OC[C@@]12[C@H](O)[C@H](O)[C@]3(C)C(=CC[C@@H]4[C@@]5(C)CC[C@H](O[C@@H]6OC[C@H](O[C@@H]7O[C@H](CO)[C@@H](O)[C@H](O)[C@H]7O[C@@H]7OC[C@@H](O)[C@H](O)[C@H]7O)[C@H](O)[C@H]6O[C@@H]6O[C@H](CO)[C@@H](O)[C@H](O)[C@H]6O)C(C)(C)[C@@H]5CC[C@]43C)[C@@H]1CC(C)(C)C[C@@H]2O was > 10 µM

The recorded IC50 with A549 for CC(=O)O[C@H]1CC(C)(C)C[C@H]2C3=CC[C@@H]4[C@@]5(C)CC[C@H](O[C@@H]6OC[C@H](O[C@@H]7O[C@H](CO)[C@@H](O)[C@H](O)[C@H]7O[C@@H]7OC[C@@H](O)[C@H](O)[C@H]7O)[C@H](O)[C@H]6O[C@@H]6O[C@H](CO)[C@@H](O)[C@H](O)[C@H]6O)C(C)(C)[C@@H]5CC[C@@]4(C)[C@]3(C)[C@@H](O)[C@@H](O)[C@@]12CO was 6.1 µM

The recorded IC50 with A549 for CC(=O)OC[C@@]12[C@H](O)[C@H](O)[C@]3(C)C(=CC[C@@H]4[C@@]5(C)CC[C@H](O[C@@H]6OC[C@H](O[C@@H]7O[C@H](CO)[C@@H](O)[C@H](O)[C@H]7O[C@@H]7OC[C@@H](O)[C@H](O)[C@H]7O)[C@H](O)[C@H]6O[C@@H]6O[C@H](CO)[C@@H](O)[C@H](O)[C@H]6O)C(C)(C)[C@@H]5CC[C@]43C)[C@@H]1CC(C)(C)[C@@H](OC(C)=O)[C@@H]2O was > 10 µM

###

Tested on: RT-112
experimentalDetails: Cytotoxicity against human RT-112 cells assessed as cell growth inhibition after 48 hrs by MTT assay
Type: functional, cell-based
details: RT-112, 48 h
For each of the molecules below, state its IC50.

Value of IC50 reported for the molecule CC(=O)O[C@@H]1[C@H](O)[C@]2(C)C(=CC[C@@H]3[C@@]4(C)CC[C@H](O[C@@H]5OC[C@H](O[C@@H]6O[C@H](CO)[C@@H](O)[C@H](O)[C@H]6O[C@@H]6OC[C@@H](O)[C@H](O)[C@H]6O)[C@H](O)[C@H]5O[C@@H]5O[C@H](CO)[C@@H](O)[C@H](O)[C@H]5O)C(C)(C)[C@@H]4CC[C@]32C)[C@@H]2CC(C)(C)C[C@H](O)[C@]12CO is > 10 µM

Value of IC50 reported for the molecule CC(=O)OC[C@@]12[C@H](O)C[C@]3(C)C(=CC[C@@H]4[C@@]5(C)CC[C@H](O[C@@H]6OC[C@H](O[C@@H]7O[C@H](CO)[C@@H](O)[C@H](O)[C@H]7O[C@@H]7OC[C@@H](O)[C@H](O)[C@H]7O)[C@H](O)[C@H]6O[C@@H]6O[C@H](CO)[C@@H](O)[C@H](O)[C@H]6O)C(C)(C)[C@@H]5CC[C@]43C)[C@@H]1CC(C)(C)[C@@H](OC(C)=O)[C@@H]2O is > 10 µM

Value of IC50 reported for the molecule CC(=O)O[C@@H]1C[C@]2(C)C(=CC[C@@H]3[C@@]4(C)CC[C@H](O[C@@H]5OC[C@H](O[C@@H]6O[C@H](CO)[C@@H](O)[C@H](O)[C@H]6O[C@@H]6OC[C@@H](O)[C@H](O)[C@H]6O)[C@H](O)[C@H]5O[C@@H]5O[C@H](CO)[C@@H](O)[C@H](O)[C@H]5O)C(C)(C)[C@@H]4CC[C@]32C)[C@@H]2CC(C)(C)C[C@H](O)[C@]12CO is > 10 µM
